# assayed_system: Cyno BCMA
# test: Kinetics and affinity of cyno BCMA/human IgG interactions by SPR (Bio-Rad Proteon XPR36)
# Type: binding, cynomolgus
# condition_info: 37° C.
Here the recorded kd Cyno is given for each entry.
Reply with just the number (in s⁻¹).

Worked examples follow.
COMBO_Rd4_0.6 nM_C21: anti-BCMA antibody (antibody, V domains shown) VH: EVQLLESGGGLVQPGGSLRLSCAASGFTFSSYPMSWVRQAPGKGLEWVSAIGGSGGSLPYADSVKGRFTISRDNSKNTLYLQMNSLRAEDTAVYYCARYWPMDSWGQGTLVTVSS VL: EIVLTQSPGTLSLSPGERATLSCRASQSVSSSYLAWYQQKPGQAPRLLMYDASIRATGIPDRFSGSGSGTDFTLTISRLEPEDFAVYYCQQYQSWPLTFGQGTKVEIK :: 0.000304
COMBO_Rd4_6 nM_C07: anti-BCMA antibody (antibody, V domains shown) VH: EVQLLESGGGLVQPGGSLRLSCAASGFTFSSYPMSWVRQAPGKGLEWVSAIGGSGGSLPYADSVKGRFTISRDNSKNTLYLQMNSLRAEDTAVYYCARYWPMADWGQGTLVTVSS VL: EIVLTQSPGTLSLSPGERATLSCRASQPISSSYLAWYQQKPGQAPRLLMYDASIRATGIPDRFSGSGSGTDFTLTISRLEPEDFAVYYCQQYQGWPLTFGQGTKVEIK :: 0.000934
C01_Rd4_6 nM_C10: anti-BCMA antibody (antibody, V domains shown) VH: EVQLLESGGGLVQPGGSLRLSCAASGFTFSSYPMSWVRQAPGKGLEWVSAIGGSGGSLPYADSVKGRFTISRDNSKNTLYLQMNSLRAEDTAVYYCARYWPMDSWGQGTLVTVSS VL: EIVLTQSPGTLSLSPGERATLSCRASQSVSSVYLAWYQQKPGQAPRLLIYDASSRAPGIPDRFSGSGSGTDFTLTISRLEPEDFAVYYCQQYSTWPLTFGQGTKVEIK :: 0.00219

Short answer for A02_Rd4_6 nM_C08: anti-BCMA antibody (antibody, V domains shown) VH: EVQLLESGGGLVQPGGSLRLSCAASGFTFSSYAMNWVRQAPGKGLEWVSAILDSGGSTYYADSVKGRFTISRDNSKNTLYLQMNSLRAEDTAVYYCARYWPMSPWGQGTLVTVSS VL: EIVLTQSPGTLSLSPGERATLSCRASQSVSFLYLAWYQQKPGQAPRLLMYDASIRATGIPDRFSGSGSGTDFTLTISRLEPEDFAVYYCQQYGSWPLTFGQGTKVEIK : kd Cyno was 0.0113

Short answer for A02_Rd4_0.6 nM_C13: anti-BCMA antibody (antibody, V domains shown) VH: EVQLLESGGGLVQPGGSLRLSCAASGFTFSSYAMNWVRQAPGKGLEWVSAISDSGGYRYYADSVKGRFTISRDNSKNTLYLQMNSLRAEDTAVYYCARYWPMSLWGQGTLVTVSS VL: EIVLTQSPGTLSLSPGERATLSCRASQSVSSSYWAWYQQKPGQAPRLLMYDASIRATGIPDRFSGSGSGTDFTLTISRLEPEDFAVYYCQQYESWPLTFGQGTKVEIK : kd Cyno was 0.00128
